targetUnderTest: T1, recombinant human B7-H3 (4Ig) protein, with His tag (human, UniProt Q5ZPR3 29-461, limits assumed)
T1 construct: Bought protein; also called human B7-H3 (4Ig)/B7-H3b protein
T1 sequence (looked up): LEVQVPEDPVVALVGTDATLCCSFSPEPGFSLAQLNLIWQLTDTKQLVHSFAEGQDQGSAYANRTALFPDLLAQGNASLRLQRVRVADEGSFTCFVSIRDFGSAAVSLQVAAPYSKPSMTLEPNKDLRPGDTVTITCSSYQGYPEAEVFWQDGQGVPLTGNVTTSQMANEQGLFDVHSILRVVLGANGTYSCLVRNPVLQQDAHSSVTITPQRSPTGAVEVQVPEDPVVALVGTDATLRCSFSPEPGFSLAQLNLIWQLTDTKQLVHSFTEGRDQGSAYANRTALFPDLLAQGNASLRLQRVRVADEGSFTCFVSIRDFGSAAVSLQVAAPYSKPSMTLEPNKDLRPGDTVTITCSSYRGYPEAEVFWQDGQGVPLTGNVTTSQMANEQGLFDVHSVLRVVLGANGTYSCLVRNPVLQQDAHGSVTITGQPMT
experimentalDetails: SPR (Biacore T200), antibody captured on Protein A chip, His-tagged antigen injected
observationType: Kd (nM)
Please reply with the bare figure in nM and do not write the unit itself.

binder	u	Kd
Enoblituzumab (antibody, human IgG1, kappa, V domains shown, Humanized anti-B7-H3 antibody of MacroGenics with optimised Fc, used as the positive control; also called AbEno; enoblituzumab-IgG1-Mut) VH: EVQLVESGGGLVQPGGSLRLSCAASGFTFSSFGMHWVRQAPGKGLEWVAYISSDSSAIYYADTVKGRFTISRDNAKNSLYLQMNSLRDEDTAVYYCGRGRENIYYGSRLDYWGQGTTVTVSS VL: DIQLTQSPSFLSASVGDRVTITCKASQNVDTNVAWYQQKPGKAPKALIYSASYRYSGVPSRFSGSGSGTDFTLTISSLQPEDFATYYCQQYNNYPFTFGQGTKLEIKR	nM	1.11
10D7 (antibody, human IgG1, kappa, V domains shown, also called 10D7-WT; Ab10D7) VH: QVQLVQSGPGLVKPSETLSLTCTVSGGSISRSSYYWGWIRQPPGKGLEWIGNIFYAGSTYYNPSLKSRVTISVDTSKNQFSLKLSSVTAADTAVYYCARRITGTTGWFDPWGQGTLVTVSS VL: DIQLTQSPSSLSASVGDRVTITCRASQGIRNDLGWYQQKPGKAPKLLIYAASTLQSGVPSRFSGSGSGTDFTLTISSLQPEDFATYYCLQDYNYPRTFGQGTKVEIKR	nM	1.11
6B5 (antibody, human IgG1, kappa, V domains shown, also called 6B5-WT; Ab6B5) VH: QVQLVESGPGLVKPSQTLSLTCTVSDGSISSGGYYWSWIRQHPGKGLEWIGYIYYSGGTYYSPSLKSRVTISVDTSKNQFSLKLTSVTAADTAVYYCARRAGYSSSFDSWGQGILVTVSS VL: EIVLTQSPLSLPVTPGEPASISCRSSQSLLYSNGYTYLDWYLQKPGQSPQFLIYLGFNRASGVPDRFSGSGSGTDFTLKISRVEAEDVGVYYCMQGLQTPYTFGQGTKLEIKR	nM	1.26

Shifting focus to the binder that follows.
What Kd value was documented for this binder, 10F5 (antibody, human IgG1, kappa, V domains shown, also called Ab10F5) VH: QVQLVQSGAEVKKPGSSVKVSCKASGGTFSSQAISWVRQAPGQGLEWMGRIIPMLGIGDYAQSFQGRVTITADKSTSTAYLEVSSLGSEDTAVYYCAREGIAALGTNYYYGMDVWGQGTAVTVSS VL: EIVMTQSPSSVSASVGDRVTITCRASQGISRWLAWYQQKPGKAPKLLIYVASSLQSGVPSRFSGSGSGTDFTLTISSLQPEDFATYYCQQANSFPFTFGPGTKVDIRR ?
1.01
